- Test system: Mycobacterium tuberculosis
- TEST_DESCRIPTION: Antituberculosis activity against Mycobacterium tuberculosis H37Rv ATCC 27294 by modified BACTEC 460 method
- Assay type: functional, organism-based
- PARTICULARS: Mycobacterium tuberculosis, H37Rv ATCC 27294
Here, each record is paired with measured log10(IC90) data.
Form field - Quantity: IC90; Unit: µM; Scale: log10

Query: Item under review: Cc1ccc(C2=NN(C(=O)c3ccccc3)[C@@H](c3cn(-c4ccccc4)nc3-c3ccc(F)cc3)C2)cc1 . Reported log10(IC90)?
Result: 0.54

Query: Subsequent entry: O=C(/C=C/c1cn(-c2ccccc2)nc1-c1ccc(F)cc1)c1ccccc1O
Result: 1.66

Query: Subsequent entry: Nc1ccc(-c2cc(-c3cn(-c4ccccc4)nc3-c3ccc(F)cc3)nc(N)n2)cc1
Result: 1.18

Query: Subsequent entry: O=C(c1ccccc1)N1N=C(c2ccc(Br)cc2)C[C@@H]1c1cn(-c2ccccc2)nc1-c1ccc(F)cc1
Result: 1.88

Query: Subsequent entry: Oc1ccccc1C1=NN[C@@H](c2cn(-c3ccccc3)nc2-c2ccc(F)cc2)C1
Result: 1.50

Query: Subsequent entry: Cc1ccc(-c2cc(-c3cn(-c4ccccc4)nc3-c3ccc(F)cc3)[nH]c(=S)n2)cc1
Result: 1.55

Query: Subsequent entry: O=[N+]([O-])c1cccc(-c2cc(-c3cn(-c4ccccc4)nc3-c3ccc(F)cc3)[nH]c(=S)n2)c1
Result: 1.63

Query: Subsequent entry: O=[N+]([O-])c1ccc(-c2cc(-c3cn(-c4ccccc4)nc3-c3ccc(F)cc3)[nH]c(=S)n2)cc1
Result: 1.12

Query: Subsequent entry: Oc1ccc(C2=NN[C@@H](c3cn(-c4ccccc4)nc3-c3ccc(F)cc3)C2)cc1
Result: 1.70

Query: Subsequent entry: O=C(/C=C/c1cn(-c2ccccc2)nc1-c1ccc(F)cc1)c1ccc(F)cc1
Result: 0.91

Query: Subsequent entry: O=C(c1ccccc1)N1N=C(c2ccccc2)C[C@@H]1c1cn(-c2ccccc2)nc1-c1ccc(F)cc1
Result: 1.94

Query: Subsequent entry: O=NN1N=C(c2ccc(Br)cc2)C[C@@H]1c1cn(-c2ccccc2)nc1-c1ccc(F)cc1
Result: 1.53

Query: Subsequent entry: Nc1nc(-c2ccccc2)cc(-c2cn(-c3ccccc3)nc2-c2ccc(F)cc2)n1
Result: 1.00

Query: Subsequent entry: COc1ccc(C2=NN(C(=O)c3ccccc3)[C@@H](c3cn(-c4ccccc4)nc3-c3ccc(F)cc3)C2)cc1
Result: 1.38

Query: Subsequent entry: COc1ccc(C2=NN[C@@H](c3cn(-c4ccccc4)nc3-c3ccc(F)cc3)C2)cc1
Result: 1.09

Query: Subsequent entry: Oc1ccccc1-c1cc(-c2cn(-c3ccccc3)nc2-c2ccc(F)cc2)[nH]c(=S)n1
Result: 1.05

Query: Subsequent entry: O=C(/C=C/c1cn(-c2ccccc2)nc1-c1ccc(F)cc1)c1ccc(Cl)cc1
Result: 1.85

Query: Subsequent entry: Cc1ccc(C(=O)/C=C/c2cn(-c3ccccc3)nc2-c2ccc(F)cc2)cc1
Result: 0.90

Query: Subsequent entry: Nc1nc(-c2ccccc2O)cc(-c2cn(-c3ccccc3)nc2-c2ccc(F)cc2)n1
Result: 1.82

Query: Subsequent entry: O=C(/C=C/c1cn(-c2ccccc2)nc1-c1ccc(F)cc1)c1ccccc1
Result: 1.21

###

- System: Mycobacterium tuberculosis
- TEST_DESCRIPTION: Antituberculosis activity against Mycobacterium tuberculosis H37Rv ATCC 27294 by modified BACTEC 460 method
- Type: functional, organism-based
- PARTICULARS: Mycobacterium tuberculosis, H37Rv ATCC 27294
Here, each record is paired with measured IC90 data.
# output: bare number, implied unit µM

Previously resolved entries follow.
[[record]]
query_smiles = "O=NN1N=C(c2cccs2)C[C@@H]1c1cn(-c2ccccc2)nc1-c1ccc(F)cc1"
reported_measurement = 46.3

[[record]]
query_smiles = "Fc1ccc(-c2nn(-c3ccccc3)cc2[C@H]2CC(c3ccc(Cl)cc3)=NN2)cc1"
reported_measurement = 68.7


Query: Item under review: O=C(c1ccccc1)N1N=C(c2cccc([N+](=O)[O-])c2)C[C@@H]1c1cn(-c2ccccc2)nc1-c1ccc(F)cc1 . Reported IC90?
Result: 101

Query: Subsequent entry: Nc1nc(-c2ccc(F)cc2)cc(-c2cn(-c3ccccc3)nc2-c2ccc(F)cc2)n1
Result: 84.3

Query: Subsequent entry: Nc1ccc(C2=NN(N=O)[C@@H](c3cn(-c4ccccc4)nc3-c3ccc(F)cc3)C2)cc1
Result: 37.8

Query: Subsequent entry: Nc1nc(-c2ccc(O)cc2)cc(-c2cn(-c3ccccc3)nc2-c2ccc(F)cc2)n1
Result: 0.88

Query: Subsequent entry: O=C(c1ccccc1)N1N=C(c2cccs2)C[C@@H]1c1cn(-c2ccccc2)nc1-c1ccc(F)cc1
Result: 88.7

Query: Subsequent entry: Nc1nc(-c2ccc(Br)cc2)cc(-c2cn(-c3ccccc3)nc2-c2ccc(F)cc2)n1
Result: 14.5

Query: Subsequent entry: O=C(/C=C/c1cn(-c2ccccc2)nc1-c1ccc(F)cc1)c1ccc(O)cc1
Result: 8.47

###

- Tested on: Mycobacterium tuberculosis
- TEST_DESCRIPTION: Antituberculosis activity against Mycobacterium tuberculosis H37Rv ATCC 27294 by modified BACTEC 460 method
- Type: functional, organism-based
- PARTICULARS: Mycobacterium tuberculosis, H37Rv ATCC 27294
MEASURE: IC90 (µM)
# output: bare number, implied unit µM

Previously resolved entries follow.
[[record]]
query_smiles = "O=C(/C=C/c1cn(-c2ccccc2)nc1-c1ccc(F)cc1)c1ccc([N+](=O)[O-])cc1"
tgt = "Mycobacterium tuberculosis"
measure = "IC90"
unit_spec = "µM"
reported_measurement = 53.5

[[record]]
query_smiles = "O=C(/C=C/c1cn(-c2ccccc2)nc1-c1ccc(F)cc1)c1ccc(Br)cc1"
tgt = "Mycobacterium tuberculosis"
measure = "IC90"
unit_spec = "µM"
reported_measurement = 18.1

[[record]]
query_smiles = "Fc1ccc(-c2nn(-c3ccccc3)cc2-c2cc(-c3ccc(Cl)cc3)nc(=S)[nH]2)cc1"
tgt = "Mycobacterium tuberculosis"
measure = "IC90"
unit_spec = "µM"
reported_measurement = 18

[[record]]
query_smiles = "COc1ccc(C(=O)/C=C/c2cn(-c3ccccc3)nc2-c2ccc(F)cc2)cc1"
tgt = "Mycobacterium tuberculosis"
measure = "IC90"
unit_spec = "µM"
reported_measurement = 10.1

[[record]]
query_smiles = "O=NN1N=C(c2ccc([N+](=O)[O-])cc2)C[C@@H]1c1cn(-c2ccccc2)nc1-c1ccc(F)cc1"
tgt = "Mycobacterium tuberculosis"
measure = "IC90"
unit_spec = "µM"
reported_measurement = 40.5

[[record]]
query_smiles = "Fc1ccc(-c2nn(-c3ccccc3)cc2[C@H]2CC(c3ccc(Br)cc3)=NN2)cc1"
tgt = "Mycobacterium tuberculosis"
measure = "IC90"
unit_spec = "µM"
reported_measurement = 22.9


// moving on: another record for IC90
Query: Item under review: O=C(c1ccccc1)N1N=C(c2ccc(F)cc2)C[C@@H]1c1cn(-c2ccccc2)nc1-c1ccc(F)cc1 . Reported IC90?
Result: 3.22

###

- Test system: Mycobacterium tuberculosis
- TEST_DESCRIPTION: Antituberculosis activity against Mycobacterium tuberculosis H37Rv ATCC 27294 by modified BACTEC 460 method
- Type: functional, organism-based
- PARTICULARS: Mycobacterium tuberculosis, H37Rv ATCC 27294
Note to self: IC90 under 90 µM means rule met, ties and anything higher get rule not met.

[[record]]
query_smiles = "O=NN1N=C(c2cccc([N+](=O)[O-])c2)C[C@@H]1c1cn(-c2ccccc2)nc1-c1ccc(F)cc1"
tgt = "Mycobacterium tuberculosis"
label = "rule met"

[[record]]
query_smiles = "Nc1ccc(C2=NN[C@@H](c3cn(-c4ccccc4)nc3-c3ccc(F)cc3)C2)cc1"
tgt = "Mycobacterium tuberculosis"
label = "rule not met"


Query: is_below(IC90, 90 µM) for Fc1ccc(-c2nn(-c3ccccc3)cc2-c2cc(-c3cccs3)nc(=S)[nH]2)cc1 ?
Result: rule met

Query: Subsequent entry: O=C(/C=C/c1cn(-c2ccccc2)nc1-c1ccc(F)cc1)c1cccs1
Result: rule met

Query: Subsequent entry: O=[N+]([O-])c1cccc(C2=NN[C@@H](c3cn(-c4ccccc4)nc3-c3ccc(F)cc3)C2)c1
Result: rule met

###

Here, each record is paired with measured IC90 data.
- System: Mycobacterium tuberculosis
- TEST_DESCRIPTION: Antituberculosis activity against Mycobacterium tuberculosis H37Rv ATCC 27294 by modified BACTEC 460 method
- Format: functional, organism-based
- PARTICULARS: Mycobacterium tuberculosis, H37Rv ATCC 27294

[[record]]
query_smiles = "O=C(c1ccccc1)N1N=C(c2ccc(Cl)cc2)C[C@@H]1c1cn(-c2ccccc2)nc1-c1ccc(F)cc1"
measure = "IC90"
reported_measurement = "> 192 µM"

[[record]]
query_smiles = "Nc1nc(-c2cccc([N+](=O)[O-])c2)cc(-c2cn(-c3ccccc3)nc2-c2ccc(F)cc2)n1"
measure = "IC90"
reported_measurement = "> 220 µM"

[[record]]
query_smiles = "Nc1nc(-c2ccc([N+](=O)[O-])cc2)cc(-c2cn(-c3ccccc3)nc2-c2ccc(F)cc2)n1"
measure = "IC90"
reported_measurement = "> 220 µM"


Query: Item under review: Nc1nc(-c2ccc(Cl)cc2)cc(-c2cn(-c3ccccc3)nc2-c2ccc(F)cc2)n1 . Reported IC90?
Result: > 226 µM

Query: Subsequent entry: Nc1ccc(-c2cc(-c3cn(-c4ccccc4)nc3-c3ccc(F)cc3)[nH]c(=S)n2)cc1
Result: > 228 µM

Query: Subsequent entry: Oc1ccc(-c2cc(-c3cn(-c4ccccc4)nc3-c3ccc(F)cc3)[nH]c(=S)n2)cc1
Result: > 227 µM

Query: Subsequent entry: O=NN1N=C(c2ccccc2O)C[C@@H]1c1cn(-c2ccccc2)nc1-c1ccc(F)cc1
Result: > 234 µM

Data provenance is ChEMBL document CHEMBL1932922.
